Dear all, this message contains pKi results, target or system UniProt:P15145.
Sequence (P15145 whole entry): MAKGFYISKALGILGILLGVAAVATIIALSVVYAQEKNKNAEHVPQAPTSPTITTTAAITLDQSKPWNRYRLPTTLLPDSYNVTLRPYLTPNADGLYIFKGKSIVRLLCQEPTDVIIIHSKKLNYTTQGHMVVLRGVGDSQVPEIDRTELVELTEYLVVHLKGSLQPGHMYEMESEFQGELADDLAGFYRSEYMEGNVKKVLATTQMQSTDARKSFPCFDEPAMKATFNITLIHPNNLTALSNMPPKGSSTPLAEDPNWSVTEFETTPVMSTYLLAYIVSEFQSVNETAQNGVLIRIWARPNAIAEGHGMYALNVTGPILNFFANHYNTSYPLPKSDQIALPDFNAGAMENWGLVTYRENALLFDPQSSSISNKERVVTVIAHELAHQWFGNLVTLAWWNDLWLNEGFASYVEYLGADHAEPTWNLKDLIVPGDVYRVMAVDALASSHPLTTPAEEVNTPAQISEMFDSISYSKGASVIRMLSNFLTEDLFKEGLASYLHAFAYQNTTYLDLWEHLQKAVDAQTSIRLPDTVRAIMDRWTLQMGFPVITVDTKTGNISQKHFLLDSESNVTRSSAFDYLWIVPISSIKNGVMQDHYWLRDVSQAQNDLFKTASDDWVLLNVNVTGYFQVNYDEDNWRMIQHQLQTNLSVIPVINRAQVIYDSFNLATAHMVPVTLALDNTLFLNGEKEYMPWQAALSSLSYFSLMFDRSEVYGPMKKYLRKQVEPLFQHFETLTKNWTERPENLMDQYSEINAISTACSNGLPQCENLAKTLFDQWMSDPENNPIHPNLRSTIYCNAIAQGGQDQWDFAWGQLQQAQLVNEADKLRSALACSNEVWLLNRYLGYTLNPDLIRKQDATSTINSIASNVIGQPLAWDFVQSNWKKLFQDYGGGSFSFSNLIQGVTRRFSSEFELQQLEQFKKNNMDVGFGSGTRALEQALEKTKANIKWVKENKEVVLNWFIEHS
Bear in mind: pKi is minus log10 of a mol/L concentration; give just that figure.

Inquiry: Look at this molecule and give its reported pKi. NC1CCc2c(-c3ccccc3)ccc(-c3ccccc3)c2CC1=O (racemic)
Reply text: 7.40

Inquiry: Field entry: NC1CCc2ccc3ccccc3c2CC1=O (racemic)
Reply text: 7.00

Inquiry: Field entry: NC1CCc2c(-c3ccccc3)ccc(Br)c2CC1=O (racemic)
Reply text: 7.15
